Ref: patent US20210403552A1

For each of the binders below, state its log10(EC50).
# Assayed Target: T1, mouse CLDN18.2 (mouse, UniProt P56857 10-264)
# T1 construct: over-expressed on HEK293T cells by lentivirus; also called mCLDN18.2; murine CLDN18.2
# T1 chain: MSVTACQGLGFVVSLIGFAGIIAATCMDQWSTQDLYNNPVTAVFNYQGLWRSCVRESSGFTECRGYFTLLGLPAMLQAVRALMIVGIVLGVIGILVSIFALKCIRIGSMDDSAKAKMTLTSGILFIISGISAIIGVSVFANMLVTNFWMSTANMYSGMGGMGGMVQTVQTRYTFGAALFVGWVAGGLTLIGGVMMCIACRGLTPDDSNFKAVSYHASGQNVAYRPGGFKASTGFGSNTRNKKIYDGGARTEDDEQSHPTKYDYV
# Experiment Description: imaging cytometry (% fluorescent cells), HEK293-mCLDN18.2 cells
Recorded EC50 (log10, µg/mL)

Task: # input binder: 44F7 (antibody, V domains shown, murine monoclonal antibody purified from hybridoma culture supernatant) VH: QVQLQQSGAELVRPGASVKMSCKASGYTFTSYNMHWVKQAPRQGLEWIGTIYPGNGDTSYNQKFKGKATLTVDKSSSTAYMQLSSLTSEDSAVYFCARGGYYGNSLDYWGQGTTLTVSS VL: DIQMTQSPSSLTVTAGEKVTMSCKSSQSLLNSGNQKNYLTWYQQKPGQPPKLLIYWASTRESGVPDRFTGSGSGTDFTLTISSVQAEDLAVYYCQNAYYYPFTFGSGTKLEIK ; wanted: its log10(EC50)
Output: -1.59

Task: # input binder: 1D10 (antibody, V domains shown, murine monoclonal antibody purified from hybridoma culture supernatant; also called ID10) VH: QVQLQQPGAELVKPGASVKLSCKASGYTFTSYWMHWVKQRPGQGLEWIGMIYPNSGSINYNEKFKNKATLTVDKSSSTAYMQLSSLTSEDSAVYFCSVYFDYWGQGTTLTVSS VL: DIQGTQSPSSLSASLGERVSLTCRASQDIGSSLNWLQQEPDGTIKRLIYATSSLDSGVPKRFSVSRSGSDYSLTISSLESEDFVDYYCLQYASSPPTFGGGTKLEIK ; wanted: its log10(EC50)
Output: -0.16

Task: # input binder: 2F12 (antibody, V domains shown, murine monoclonal antibody purified from hybridoma culture supernatant) VH: EVQLVESGGGLVKPGGSLKLSCAASGFTFSDYGIHWVRQAPEKGLEWVAYISSGSSTIYYADTVKGRFTISRDNAKNTLFLQMTSLRSEDTAIYYCAKWDRGNCFDYWGQGTTLTVSS VL: DIVLTQSPSSLTVTAGEKVTMSCKSSQSLLNSGNQKKYLTWYQQKVGQPPKLLIYWASIRECGVPDRFTGSGSGTDFILTISSVQAEDLAVYYCQNAYSYPLTFGAGTKLELK ; wanted: its log10(EC50)
Output: -1.44

Task: # input binder: 10B11 (antibody, V domains shown, murine monoclonal antibody purified from hybridoma culture supernatant) VH: QVQMKESGAELVKPGASVKISCKASGYAFSTYWMDWVKQRPGKGLEWIGQIYPGNGDTNYNGKFKGKATLTADKSSSTADMQLSSLTSEDSAVYFCARLGYGNSFTYWGQGTLVTVSA VL: DIQVTQSPSSLTVTAGEKVTMSCKSSQSLLNSGNQKNYLTWYQQKPGQPPKLLIYWASTRESGVPDRFTGSGFGTDFTLTISSVQAEDLAVYYCQNAYFYPFTFGSGTKLEIK ; wanted: its log10(EC50)
Output: -1.46

Task: # input binder: 5F9 (antibody, V domains shown, murine monoclonal antibody purified from hybridoma culture supernatant) VH: QVQLQQSGAELVKPGASVKLSCKASGYTFTSYWMHWVKQRPGQGLEWIGMIHPNSVSTNYNEKFKSKATLTVDKSSSTAYMQLSSLTSEDSAVYYCAVYFDYWGQGTTLTVSS VL: DIQVTQSPSSLSASLGERVSLTCRASQDIGSSLNWLQQEPDGTIKRLIYASSSLNSGVPKRFSVSRSGSDYSLTISSLESEDFVDYYCLQYATSPPTFGGGTKLEIK ; wanted: its log10(EC50)
Output: -0.75

Task: # input binder: 175D10 (antibody, human IgG1, kappa, V domains shown) VH: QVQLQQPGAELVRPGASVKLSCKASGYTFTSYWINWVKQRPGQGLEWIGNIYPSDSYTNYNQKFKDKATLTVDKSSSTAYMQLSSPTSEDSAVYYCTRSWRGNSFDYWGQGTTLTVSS VL: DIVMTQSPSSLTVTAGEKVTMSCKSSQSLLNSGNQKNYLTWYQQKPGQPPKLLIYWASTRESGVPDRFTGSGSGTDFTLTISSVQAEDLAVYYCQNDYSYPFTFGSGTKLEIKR ; wanted: its log10(EC50)
Output: -0.09

Task: # input binder: 44A8 (antibody, V domains shown, murine monoclonal antibody purified from hybridoma culture supernatant) VH: EVRLQQSGPELVKPGASVKMSCKASGYTFTDYNMHWVKQSHGKSLEWIGYINPKNGGIRYNQKFTGKATLTVNKSSSTAYMELRSLTSEDSAVYYCARGGYYGNTLDNWGQGTSVTVSS VL: DIVMTQSPSSLTLTAGEKVTMSCKSSQSLLNSGNQKNYLTWYQQKPGQPPKLLIYWASTSESGVPDRFTGSGSGTDFTLTISSVQAEDLAIYYCQNAYFYPWTFGGGTKLEIK ; wanted: its log10(EC50)
Output: -1.59

Task: # input binder: 37B1 (antibody, V domains shown, murine monoclonal antibody purified from hybridoma culture supernatant) VH: EVRLQQSGPELVKPGASVKMSCKASGYSFTDYNMHWVKQSHGKSPEWVGYINPNKGGTGYNQKFKGKATLTVNKSSSTANMELRSLTSEDSAVYYCARIWYGNSFAYWGQGTLVTVSA VL: DVVMTQSPSSLTVTAGEKVTMSCKSSQSLLNSGNQKNYLTWYQQKPGQPPKLLIYWASTRESGVPDRFTGSGSGTDFTLTISSVQAEDLAVYFCQNDYFYPFTFGSGTKLEIK ; wanted: its log10(EC50)
Output: -1.49

Task: # input binder: 27B5 (antibody, V domains shown, murine monoclonal antibody purified from hybridoma culture supernatant) VH: QVQLQQPGTELVKPGASVKLSCKASGYTFTSYWMHWVKQRPGQGLEWIGNIHPSNGGSNHNEKFKSKATLTVDKSSSTAYMQLSSLTSEDSAVYYCAPIYYGNSLAYWGHGTLVTVSA VL: DVVMTQSPSSLTVTAGEKVTMSCKSSQSLLNSGNQKNYLTWYQQKPGQPPKLLLYWASTRESGVPDRFTGSGSGTDFTLTISSVQAEDLAVYYCQNSYFYPFTFGSGTKLEIK ; wanted: its log10(EC50)
Output: -1.48

Task: # input binder: 9F3 (antibody, V domains shown, murine monoclonal antibody purified from hybridoma culture supernatant) VH: EVRLQQSGPELVKPGASVKIPCKASGYKFTDYNMDWVKQSHGKSLEWIGEINPNNGGTIYNQKFKGKATLTVDKSSSTAYMELRSLTSEDTAVYYCARIYYGNSFAYWGQGTLVTVSS VL: DIVMTQSPSSLTVTAGEKVTMSCKSSQSLLNSGNLKNYLTWYQQKPGQPPKLLIYWASTRESGVPDRFTGSGSGTDFTLTISSVQAEDLAVYYCQNDYFYPLTFGAGTKLEIK ; wanted: its log10(EC50)
Output: -1.37
